- Tested on: JAK2(JH1domain-catalytic);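 also: kd values determined as follow-up on hits from a single-replicate KINOMEscan panel screen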
measure: pKd
// returns pKd (minus log10 of molar concentration), number only

Query :: Output pKd of COc1ccc(CNC(=O)NC2CCN(c3ccnc(Nc4cc(OC)c(OC)c(OC)c4)n3)C2)cc1 (stereo not shown)
Result :: 6.46

Now for the compound whose pKd we want.
Query :: Output pKd of O=S(=O)(c1ccc(-c2ccnc3[nH]ccc23)cc1)N1CCCC1
Result :: 6.44

###

- System: TNIK
- condition set: concentration: 1 μM, replicates: in singlicate; n = 1
%Inh values by entry
Respond numerically; units are % and should not be typed.

# count of solved cases: 8
Query :: Output %Inh of O=c1cc(N2CCOCC2)nc2n(Cc3cccc(Cl)c3Cl)ccn12
Result :: 0

Query :: Output %Inh of COc1cc2ncn(-c3cc(OCC4CCCO4)c(C(N)=O)s3)c2cc1OC (stereo not drawn)
Result :: 27

Query :: Output %Inh of O=C(Nc1n[nH]c2nc(-c3nccs3)c(Br)cc12)C1CC1
Result :: 0

Query :: Output %Inh of Cc1cc(-c2ccc3c(c2)CC[C@@H](N[C@@H](C)c2ccccc2)C3)cnc1N.Cl
Result :: 45

Query :: Output %Inh of CC(C)(C)c1ccc(C(=O)Nc2cn3cc(Cl)ccc3n2)cc1
Result :: 4

Query :: Output %Inh of O=C(Nc1n[nH]c2cc(-c3cccc(F)c3F)ccc12)C1CC1
Result :: 72

Query :: Output %Inh of Cl.Oc1ccc(-c2nc(-c3ccccc3)[nH]c2-c2ccncc2)cc1
Result :: 0

Query :: Output %Inh of Cc1csc(-c2nc(Nc3ccncc3)c3ccccc3n2)n1
Result :: 50

---
Query :: Output %Inh of CN1C(=O)C(Nc2ccc(Cl)c(C(=O)O)c2)=C(c2ccc(Cl)cc2)C1=O
Result :: 13

###

- System: CAMK1
- condition set: concentration: 1 μM, replicates: in singlicate; n = 1
%Inh values by entry
Respond numerically; units are % and should not be typed.

Query :: Output %Inh of Cn1ccc2ncnc(Oc3cccc(C(=O)Nc4ccccc4)c3)c21
Result :: 29

---
Query :: Output %Inh of CCn1c(-c2ccccn2)nc2cnccc21
Result :: 0

Query :: Output %Inh of Nc1nc(-c2nccs2)c(-c2ccnc3ccccc23)s1
Result :: 30

Query :: Output %Inh of Cc1nnc(-c2ccc3occ(-c4ccc(S(C)=O)cc4)c3c2)[nH]1 (stereo not shown)
Result :: 9

Query :: Output %Inh of Cc1cccc(-c2nc(-c3ccc(S(C)(=O)=O)cc3)sc2-c2ccnc(NCCc3ccccc3)c2)c1
Result :: 31

Query :: Output %Inh of COc1ccc(CNC(=O)NC2CCN(c3ccnc(Nc4cc(OC)c(OC)c(OC)c4)n3)C2)cc1 (stereo not shown)
Result :: 28

Query :: Output %Inh of Cl.NC(=O)c1cccc(Nc2nccc(Nc3ccc(Oc4cccc(Cl)c4)c(Cl)c3)n2)c1
Result :: 25

Query :: Output %Inh of Cc1cccc(-c2nc(C)cc(Nc3ccncc3)n2)n1
Result :: 10

Query :: Output %Inh of Cc1cc(N2Cc3ccccc3C2)nc(Nc2ccc(S(=O)(=O)N3CCOCC3)cc2)n1.Cl
Result :: 5

Query :: Output %Inh of O=C(Nc1n[nH]c2nc(-c3nccs3)c(Br)cc12)C1CCCC1
Result :: 0

Query :: Output %Inh of COc1cc2ncn(-c3cc(OCC4CCCO4)c(C(N)=O)s3)c2cc1OC (stereo not shown)
Result :: 6

Query :: Output %Inh of Cc1ccc(NC(=O)Nc2cccc(Cl)c2)cc1-c1ccc(C(=O)Nc2ccncc2)cc1
Result :: 7

Query :: Output %Inh of C[C@@H]1CCCCN1c1cc(-c2ccc3c(N)n[nH]c3c2)nc(N)n1
Result :: 9

Query :: Output %Inh of CS(=O)(=O)c1ccc(-c2c(-c3ncn[nH]3)sc(N3CCOCC3)c2C#N)cc1
Result :: 13

Query :: Output %Inh of Fc1cccc(COc2nnc(-c3ccc4c(c3)CCO4)o2)c1
Result :: 18

Query :: Output %Inh of COc1cc2nccc(Nc3ccc(NC(=O)c4ccc(C)cc4)c(O)c3)c2cc1OC.Cl
Result :: 15

Query :: Output %Inh of Cc1ccccc1-n1cnc2c(N)ncnc21
Result :: 0

Query :: Output %Inh of CC(=O)Nc1nc2cnc(Nc3cc(NC(=O)c4cccc(CCC#N)c4)ccc3C)nc2s1
Result :: 25

Query :: Output %Inh of CS(=O)(=O)c1ccc(-c2nc3n(c2-c2ccncc2)CCC3)cc1
Result :: 8

Taken from paper PMC5540273.
